system: SW-620 colon; experiment: NCI-60 one-dose screen, 48 h (100 = growth as untreated, 0 = no growth, -100 = all killed); settings: 10 µM unless noted
About 83,000 compounds went through this panel and 20% of them were active in at least one assay; those are over-represented in the sample as a whole. The source made the active and inactive calls. Rule for the calls: active = growth percent below 10; inactive = the rest.
Consider the following compounds and their measured growth readings.

Past entries and their recorded results:
compound=C=CC(=O)NCc1ccc(Nc2nccc(-c3ccc(N4CCCC4)c(C#N)c3)n2)cc1 recorded_metric=growth measured_value="43.9% (inactive)"
compound="COc1cccc(CNc2ncnc3c2ncn3C2OC(CO)C(O)C2O)c1O (stereo not given)" recorded_metric=growth measured_value="6.4% (active)"
compound=CCN(CC)C(=S)SC(SC(=S)N(CC)CC)C(=O)c1nnn(-c2ccc([N+](=O)[O-])cc2)c1C recorded_metric=growth measured_value="95.5% (inactive)"
compound=COc1ccc(-c2nnc(-c3ccc4c(c3)nc(-c3ccncc3)n4C3CCCCC3)o2)cc1 recorded_metric=growth measured_value="95.9% (inactive)"
compound=O=C(CSc1nnc2n1S(=O)(=O)c1ccccc1N2c1ccccc1)Nc1nc2ccc(F)cc2s1 recorded_metric=growth measured_value="109% (inactive)"

Return reported growth; argument: "O=C(NCCCN1CCOCC1)c1cccc(N2C(=O)/C(=C/c3ccc(F)cc3)SC2=S)c1"
95.9% (inactive)

Return reported growth; argument: "COc1ccc(/C=C2\COc3ccc(O)c(O)c3C2=O)cc1"
6.34% (active)

Return reported growth; argument: "O=C1Nc2ccc(Br)cc2/C1=N/c1n[nH]c(=S)s1"
97.1% (inactive)

Return reported growth; argument: "CCN1CC(=O)N(/N=C2\C(=O)Nc3ccccc32)C1=S"
87% (inactive)

Return reported growth; argument: "CC(=O)c1cc(O)c2ccccc2c1O"
108% (inactive)

Return reported growth; argument: "O=C(O)c1ccc(-n2cc(/C=N/Nc3ccc(F)cc3)c(-c3cc4ccccc4oc3=O)n2)cc1"
64.5% (inactive)

Return reported growth; argument: "C=C(C)[C@@H]1CC[C@]2(C(=O)NCC#CCN3CCN(C)CC3)CC[C@]3(C)[C@H](CC[C@@H]4[C@@](C)(CCC#N)[C@H](C(=C)C)CC[C@]43C)[C@@H]12"
45.5% (inactive)

Return reported growth; argument: "COc1cnc2c(c1)C(=O)c1c-2n(CCCNCCO)c(=O)c2ccncc12"
9.91% (active)

Return reported growth; argument: "C=CCn1c(SCC(=O)NCc2cc(C)c(O)c(C)c2)nc2ccc(Cl)cc2c1=O"
102% (inactive)

Return reported growth; argument: "CCOC(=O)c1c2c(n3ccc(C)cc13)C(=O)c1ccccc1C2=O"
89.2% (inactive)

Return reported growth; argument: "CCOC(=O)c1cc(-c2ccc([N+](=O)[O-])cc2)n(-c2ccc(C(=O)O)c(O)c2)c1C"
93.2% (inactive)

Return reported growth; argument: COc1cc(N2C(=O)[C@H](O)C2c2ccc(SC)cc2)cc(OC)c1OC (stereo not given in full)
23.7% (inactive)

Return reported growth; argument: "O=[N+]([O-])c1ccc(-c2nc(N3CCOCC3)c3c4c(sc3n2)CCCC4)cc1"
95.1% (inactive)

Return reported growth; argument: O=C1CNC(c2ccccc2)C(c2ccccc2)N1 (stereo not given)
98.5% (inactive)

Return reported growth; argument: "Cc1nn(-c2ccccc2)c(Oc2ccccn2)c1-c1nc2ccccc2s1"
105% (inactive)
